- System: HEK293 cells overexpressing APOL1 G2
- Experimental details: APOL1 G2 HEK293 cell rescue assay (reversal of cell death caused by overexpression of APOL1)
- Assay type: cell-based
- Measurement context: Homo sapiens, HEK293, HEK293 overexpressing APOL1 G2; geometric mean of at least 2 assay runs; † = single assay run
Endpoint name: EC50 (nM)
Give bare numbers, in nM.

Previously resolved entries follow.
>>> numeric_readout("C[C@@H](COc1ccc(S(C)(=O)=O)cc1)N1CCC2(CC1)C(=O)Nc1ccc(Cl)cc12 (single isomer, unassigned)")
90.3
>>> numeric_readout("CC(=O)N1CCCc2cc(OCCN3CCC4(CC3)C(=O)Nc3ccc(Cl)cc34)cnc21")
65.7
>>> numeric_readout("C[C@]1(O)C[C@@H](n2cnc3cc(OCCN4CCC5(CC4)C(=O)Nc4ccc(C#N)cc45)cc(OC(F)F)c32)C1")
112
>>> numeric_readout("CC1(Oc2ncc(OCCN3CCC4(CC3)C(=O)Nc3ccc(Cl)cc34)cn2)COC1")
99.1
>>> numeric_readout("CC1(O)CN(c2nccc3cc(OCCN4CCC5(CC4)C(=O)Nc4ccc(Cl)cc45)cnc23)C1")
110

Quick one: give me EC50 for each item below, same order please.
1. CC(c1ncc(OCCN2CCC3(CC2)C(=O)Nc2ccc(Cl)cc23)cn1)S(C)(=O)=O (stereo not drawn) [Compound 1]
2. CS(=O)(=O)C1(c2c(F)cc(OCCN3CCC4(CC3)C(=O)Nc3ccc(C#N)cc34)cc2F)COC1
3. N#Cc1ccc2c(c1)C1(CCN(CCOc3ccc(S(=O)(=O)C(F)F)cc3)CC1)C(=O)N2

[120, 64.9, 83.6]

Record request: EC50 value, item Cc1cc(OCCN2CCC3(CC2)C(=O)Nc2ccc(C#N)cc23)cc(C)c1S(C)(=O)=O
92.3
